Target: STAT6 (Homo sapiens)
Sequence (P42226 whole entry, species assumed): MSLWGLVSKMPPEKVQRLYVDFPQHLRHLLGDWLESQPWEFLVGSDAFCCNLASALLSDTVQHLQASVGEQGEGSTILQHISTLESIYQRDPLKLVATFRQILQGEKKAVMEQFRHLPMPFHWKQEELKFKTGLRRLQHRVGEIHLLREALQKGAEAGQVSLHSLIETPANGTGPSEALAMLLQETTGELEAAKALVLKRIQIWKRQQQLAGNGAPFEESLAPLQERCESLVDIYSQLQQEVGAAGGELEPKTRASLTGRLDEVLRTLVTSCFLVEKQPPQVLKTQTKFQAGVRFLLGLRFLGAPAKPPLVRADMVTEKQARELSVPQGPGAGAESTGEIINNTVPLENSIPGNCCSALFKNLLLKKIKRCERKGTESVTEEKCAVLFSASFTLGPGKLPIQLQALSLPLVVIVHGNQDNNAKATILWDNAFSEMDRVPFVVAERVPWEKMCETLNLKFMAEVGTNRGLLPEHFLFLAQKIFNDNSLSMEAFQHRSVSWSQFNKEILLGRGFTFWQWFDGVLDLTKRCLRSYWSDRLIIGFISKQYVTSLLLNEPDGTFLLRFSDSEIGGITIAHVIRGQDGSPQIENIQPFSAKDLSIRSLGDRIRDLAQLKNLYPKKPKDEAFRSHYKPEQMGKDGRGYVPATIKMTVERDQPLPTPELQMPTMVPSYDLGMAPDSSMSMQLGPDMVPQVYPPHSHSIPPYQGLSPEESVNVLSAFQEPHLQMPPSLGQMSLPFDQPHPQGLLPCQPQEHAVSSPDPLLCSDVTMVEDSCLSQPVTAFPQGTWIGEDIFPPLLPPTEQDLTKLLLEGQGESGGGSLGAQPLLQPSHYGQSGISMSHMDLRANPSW
Experiment: Inhibition of STAT6 binding (duplex formation)
Settings: Table 1; inhibitors of STAT6 binding (duplex formation)
Task for the reader: assign each of the following compounds its reported IC50.

The cases that follow already have their IC50 on record.
CC(C)(C)[C@H](NC(=O)/C=C/c1ccc(C(O)C(=O)O)cc1)C(=O)N1C[C@H](NS(C)(=O)=O)C[C@H]1C(=O)N(Cc1ccccc1)c1ccc(C(N)=O)cc1 (stereo partly drawn) [drawing 46: H, —NHSO2CH3,4-CONH2, H] ... 1 to 50 µM
CN(C)[C@@H]1C[C@@H](C(=O)N(Cc2ccccc2)c2ccc(C(N)=O)cc2)N(C(=O)[C@@H](NC(=O)/C=C/c2ccc(C(O)C(=O)O)cc2)C(C)(C)C)C1 (stereo partly drawn) [drawing 46: H, —N(CH3)2,4-CONH2, H] ... 50 to 100 µM

Tell me the measured IC50 of CC(C)(C)[C@H](NC(=O)/C=C/c1ccc(C(O)C(=O)O)cc1)C(=O)N1C[C@H](NC(=O)OCc2ccccc2)C[C@H]1C(=O)N(Cc1ccccc1)c1ccc(C(N)=O)cc1 (stereo partly drawn) [drawing 46: H, —NHCO2Bn, 4-CONH2, H] , please. 1 to 50 µM

----------
Task for the reader: assign each of the following molecules its reported IC50.
Molecular target: STAT6 (Homo sapiens)
Assay: Inhibition of STAT6 binding (duplex formation)
Details: Table 2; STAT6 binding

The cases that follow already have their IC50 on record.
CC(C)(C)[C@H](NC(=O)/C=C/c1ccc(C(=O)O)cn1)C(=O)N1CCC[C@H]1C(=O)N(c1ccccc1)c1ccc(C(N)=O)cc1 ... > 100 µM
CC(C)(C)[C@H](NC(=O)/C=C/c1ccc(OCC(=O)O)cc1)C(=O)N1CCC[C@H]1C(=O)N(c1ccccc1)c1ccc(C(N)=O)cc1 ... > 100 µM
CC(C)(C)[C@H](NC(=O)/C=C/c1cccc(C(=O)O)c1)C(=O)N1CCC[C@H]1C(=O)N(c1ccccc1)c1ccc(C(N)=O)cc1 ... > 100 µM

Each of the following entries comes with a recorded value; kindly state IC50 for each.
1. CC(C)(C)[C@H](NC(=O)/C=C/c1ccc(P(=O)(O)O)c(O)c1)C(=O)N1CCC[C@H]1C(=O)N(c1ccccc1)c1ccc(C(N)=O)cc1
2. CC(C)(C)[C@H](NC(=O)/C=C/c1ccc(CP(=O)(O)O)cc1)C(=O)N1CCC[C@H]1C(=O)N(c1ccccc1)c1ccc(C(N)=O)cc1
3. CC(C)(C)[C@H](NC(=O)/C=C/c1cccc(C(=O)O)n1)C(=O)N1CCC[C@H]1C(=O)N(c1ccccc1)c1ccc(C(N)=O)cc1
4. CC(C)(C)[C@H](NC(=O)/C=C/c1ccc(C(F)(F)P(=O)(O)O)cc1)C(=O)N1CCC[C@H]1C(=O)N(c1ccccc1)c1ccc(C(N)=O)cc1

["1 to 50 µM", "1 to 50 µM", "> 100 µM", "< 1 µM"]

Each of the following entries comes with a recorded value; kindly state IC50 for each.
1. CC(C)(C)[C@H](NC(=O)/C=C/c1cccc(CP(=O)(O)O)c1)C(=O)N1CCC[C@H]1C(=O)N(c1ccccc1)c1ccc(C(N)=O)cc1
2. CC(C)(C)[C@H](NC(=O)/C=C/c1ccc(OC(F)(C(=O)O)C(=O)O)cc1)C(=O)N1CCC[C@H]1C(=O)N(c1ccccc1)c1ccc(C(N)=O)cc1
3. CC(C)(C)[C@H](NC(=O)/C=C/c1cccc(CC(=O)O)c1)C(=O)N1CCC[C@H]1C(=O)N(c1ccccc1)c1ccc(C(N)=O)cc1
4. CC(C)(C)[C@H](NC(=O)/C=C/c1ccc(C(=O)O)cc1)C(=O)N1CCC[C@H]1C(=O)N(c1ccccc1)c1ccc(C(N)=O)cc1
5. CC(C)(C)[C@H](NC(=O)/C=C/c1ccc(C(O)P(=O)(O)O)cc1)C(=O)N1CCC[C@H]1C(=O)N(c1ccccc1)c1ccc(C(N)=O)cc1 (stereo partly shown)
6. CC(C)(C)[C@H](NC(=O)/C=C/c1ccc(C(=O)O)c(C(=O)O)c1)C(=O)N1CCC[C@H]1C(=O)N(c1ccccc1)c1ccc(C(N)=O)cc1
7. COc1cc(/C=C/C(=O)N[C@H](C(=O)N2CCC[C@H]2C(=O)N(c2ccccc2)c2ccc(C(N)=O)cc2)C(C)(C)C)ccc1P(=O)(O)O

1: > 100 µM; 2: 1 to 50 µM; 3: > 100 µM; 4: > 100 µM; 5: 1 to 50 µM; 6: 1 to 50 µM; 7: 1 to 50 µM

Each of the following entries comes with a recorded value; kindly state IC50 for each.
1. CC(C)(C)[C@H](NC(=O)/C=C/c1ccc(CC(=O)O)cc1)C(=O)N1CCC[C@H]1C(=O)N(c1ccccc1)c1ccc(C(N)=O)cc1
2. CC(C)(C)[C@H](NC(=O)/C=C/c1ccc(P(=O)(O)O)cc1)C(=O)N1CCC[C@H]1C(=O)N(c1ccccc1)c1ccc(C(N)=O)cc1

1. > 100 µM
2. 1 to 50 µM
